tested on: HepG2; test: GSK_TCMDC: Percent inhibition of human HepG2 cell line. Test compounds present at 10uM.; assay type: functional
Attribute: Inhibition
ASSAY_READOUT: Inhibition (%)

{"MOLECULE": "Cl.O=c1cc(NCCCNCc2ccc(Cl)c(Cl)c2)[nH]c2ccc(Cl)cc12", "ASSAYED_SYSTEM": "HepG2", "QUANTITY_UNIT": "%", "TEST_RESULT": 11}
{"MOLECULE": "Cc1cc(N/N=C/c2cccc([N+](=O)[O-])c2)c2ccc(F)cc2n1", "ASSAYED_SYSTEM": "HepG2", "QUANTITY_UNIT": "%", "TEST_RESULT": 0}
{"MOLECULE": "CCOc1ccc(C(=O)Nc2cc(Br)c3c(c2)CNCC3)cc1Cl.Cl", "ASSAYED_SYSTEM": "HepG2", "QUANTITY_UNIT": "%", "TEST_RESULT": 13}
{"MOLECULE": "O=C(NCCc1ccccc1)N(Cc1ccccc1-c1cccc(CNC2CCCC2)c1)C1CCN(Cc2ccccc2)CC1.O=C(O)C(F)(F)F", "ASSAYED_SYSTEM": "HepG2", "QUANTITY_UNIT": "%", "TEST_RESULT": 31}
{"MOLECULE": "CCCOc1cc(OCCC)cc(-c2ccc(C(=O)Nc3ccc4ccc(C)nc4c3)c(=O)[nH]2)c1", "ASSAYED_SYSTEM": "HepG2", "QUANTITY_UNIT": "%", "TEST_RESULT": 11}
{"MOLECULE": "COc1ccc(C2CCN(C#N)C2)cc1OC1CCCC1 (stereo not drawn)", "ASSAYED_SYSTEM": "HepG2", "QUANTITY_UNIT": "%", "TEST_RESULT": 9}
{"MOLECULE": "CCCOc1ccccc1-c1nc2[nH]c3c(c2c(=O)[nH]1)CCN(C)C3", "ASSAYED_SYSTEM": "HepG2", "QUANTITY_UNIT": "%", "TEST_RESULT": 8}
{"MOLECULE": "Cc1cccc2nc(-c3ccc(-c4ccc(NC(=O)C(C)CN(C)C)cc4)cc3)[nH]c12 (stereo not drawn)", "ASSAYED_SYSTEM": "HepG2", "QUANTITY_UNIT": "%", "TEST_RESULT": 18}
